Every entry's value here was drawn from patent EP0109294A2.

- ASSAY DETAILS: in vivo
- Design: species or system mice
- ASSAY CONDITIONS: mouse, 100 mg/kg, 120 min
- Protocol: The compounds produced according to the Examples (Compound Nos. 2, 4, 6 and 8) and, as a reference control, pivaloyloxymethyl ester of compound (II) (hereinafter referred to as Compound A) are orally administered to mice at a common dose level of 100 mg/kg (as the non-ester, i.e. compound (II) per mouse). […] As a control, compound (II) is subcutaneously administered to mice at the same dose and the AUC is similarly calculated.
Structures can show the parent of a compound that is named as a salt.
METRIC: Bio-availability

Some solved entries appear below for comparison.
- CC(OC(=O)C1=C(CSc2nnnn2CCN(C)C)CS[C@@H]2[C@H](NC(=O)Cc3csc(N)n3)C(=O)N12)OC(=O)C1CCCC1 (some centres unmarked) [Compound No. 8, dihydrochloride]: 78.3
- CC(OC(=O)CC1CCCCC1)OC(=O)C1=C(CSc2nnnn2CCN(C)C)CS[C@@H]2[C@H](NC(=O)Cc3csc(N)n3)C(=O)N12 (some centres unmarked) [Compound No. 2, dihydrochloride]: 107.7
- CC(OC(=O)C1=C(CSc2nnnn2CCN(C)C)CS[C@@H]2[C@H](NC(=O)Cc3csc(N)n3)C(=O)N12)OC(=O)C1CCCCC1 (some centres unmarked) [Compound No. 4, dihydrochloride]: 76.2

1. CN(C)CCn1nnnc1SCC1=C(C(=O)OCOC(=O)C(C)(C)C)N2C(=O)[C@@H](NC(=O)Cc3csc(N)n3)[C@H]2SC1 [Compound A, pivaloyloxymethyl ester of compound (II), reference compound]
2. CC(OC(=O)CC1CCCC1)OC(=O)C1=C(CSc2nnnn2CCN(C)C)CS[C@@H]2[C@H](NC(=O)Cc3csc(N)n3)C(=O)N12 (some centres unmarked) [Compound No. 6, dihydrochloride]
Lookup: Could you point out whether the larger Bio-availability belongs to 1 or to 2 ? Your answer should be the label of the entry you select.
Found: 2
(2: 82.2, 1: 41.8)

----------
- ASSAY DETAILS: in vivo
- Parameters: species or system mice
- ASSAY CONDITIONS: mouse, sc, 100 mg/kg
METRIC: concentration at 0.25 h (µg/mL)
Unit µg/mL implied. Number only.

Lookup: Supply concentration at 0.25 h value. Item: CN(C)CCn1nnnc1SCC1=C(C(=O)O)N2C(=O)[C@@H](NC(=O)Cc3csc(N)n3)[C@H]2SC1 [compound (II), reference compound]
Found: 69.2

----------
- ASSAY DETAILS: in vivo
- Design: species or system mice
- ASSAY CONDITIONS: mouse, po, 100 mg/kg, 120 min
Counter-ions that a name gives are not always drawn.
METRIC: Plasma level of non-ester 2 hr (ng/mL)

• CC(OC(=O)C1=C(CSc2nnnn2CCN(C)C)CS[C@@H]2[C@H](NC(=O)Cc3csc(N)n3)C(=O)N12)OC(=O)C1CCCCC1 (some centres unmarked) [Compound No. 4, dihydrochloride] = 1010
• CC(OC(=O)C1=C(CSc2nnnn2CCN(C)C)CS[C@@H]2[C@H](NC(=O)Cc3csc(N)n3)C(=O)N12)OC(=O)C1CCCC1 (some centres unmarked) [Compound No. 8, dihydrochloride] = 1350
• CC(OC(=O)CC1CCCC1)OC(=O)C1=C(CSc2nnnn2CCN(C)C)CS[C@@H]2[C@H](NC(=O)Cc3csc(N)n3)C(=O)N12 (some centres unmarked) [Compound No. 6, dihydrochloride] = 6460

P. CC(OC(=O)CC1CCCCC1)OC(=O)C1=C(CSc2nnnn2CCN(C)C)CS[C@@H]2[C@H](NC(=O)Cc3csc(N)n3)C(=O)N12 (some centres unmarked) [Compound No. 2, dihydrochloride]
Q. CN(C)CCn1nnnc1SCC1=C(C(=O)OCOC(=O)C(C)(C)C)N2C(=O)[C@@H](NC(=O)Cc3csc(N)n3)[C@H]2SC1 [Compound A, pivaloyloxymethyl ester of compound (II), reference compound]
Lookup: Which value of Plasma level of non-ester 2 hr is smaller, the one for P or the one for Q ? Your answer should be the label of the entry you select.
Found: Q
(Q: 600 ng/mL, P: 3100 ng/mL)
